Tested on: pSTAT5/GM-CSF
Assay summary: pSTAT5/GM-CSF cellular assay (JAK2 selectivity)
Format: cell-based
I'd be grateful if you could share measured IC50 for these entries.

Write down IC50 measured for item CCS(=O)(=O)c1cc(OC(C)C)cc(Nc2cc(NC(C)=O)ncc2-c2ccn(C)n2)n1 [Example J53] > 10 µM

# return recorded IC50 for input CC(=O)Nc1cc(Nc2cc(OC(C)C)cc(S(C)(=O)=O)n2)c(-c2ccc(N3CC4CC3CO4)cn2)cn1 (centres unmarked) [Example B16] 4.29 µM

Indicate its recorded IC50; the molecule in question is COCCOc1ccc(-c2cnc(NC(C)=O)cc2Nc2cc(OC[C@@H](C)OC)cc(S(C)(=O)=O)n2)nc1 [Example D7] > 10 µM

Kindly indicate its recorded IC50. Item: CC(=O)Nc1cc(Nc2cc(OCC#N)cc(S(C)(=O)=O)n2)c(-c2ccn(C)n2)cn1 [Example J20] > 10 µM

Could I get IC50 for every one of these entries?
1. CC(=O)Nc1cc(Nc2cc(OC3CCOC3)cc(S(C)(=O)=O)n2)c(-c2ccn(C)n2)cn1 (centres unmarked) [Example J46]
2. COc1cc(Nc2cc(NC(C)=O)ncc2-c2ccn(C(C)C)n2)cc(S(C)(=O)=O)c1 [Example M27]

["> 10 µM", "> 10 µM"]

----------
Assay target: TYK2-JH2 (aa 575-869, in-house) protein (Homo sapiens, UniProt P29597)
Construct: TYK2-JH2 (aa 575-869, in-house) protein; made in house
Sequence (P29597 575-869): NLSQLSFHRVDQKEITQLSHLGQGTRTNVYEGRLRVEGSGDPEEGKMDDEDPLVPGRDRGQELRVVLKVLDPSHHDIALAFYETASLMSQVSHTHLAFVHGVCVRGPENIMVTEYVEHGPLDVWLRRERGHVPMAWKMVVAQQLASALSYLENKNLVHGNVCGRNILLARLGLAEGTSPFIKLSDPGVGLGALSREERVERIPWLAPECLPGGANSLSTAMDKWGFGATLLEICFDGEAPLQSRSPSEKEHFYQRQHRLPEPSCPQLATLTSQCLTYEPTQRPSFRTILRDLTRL
Assay summary: TYK2-JH2 biochemical assay (HTRF probe displacement)
Format: binding
Applied conditions: Biochemical assay; read-out: TYK2-JH2 IC50
Recorded endpoint: pIC50
Numbers only, as −log10 of the molar value.

Write down pIC50 measured for item CC(=O)Nc1cc(Nc2cc(C(C)(C)O)cc(S(C)(=O)=O)n2)c(-c2ccc3c(n2)OC(C)(C)CO3)cn1 10.43

Look up and report measured pIC50 for this entry: CC(=O)Nc1cc(Nc2cccc(S(C)(=O)=O)n2)c(-c2cc(N3CCOCC3)n(C)n2)cn1 10.77

Report pIC50, nothing else, for this molecule: CC(=O)Nc1cc(Nc2cc(OC3COC3)cc(S(C)(=O)=O)n2)c(-c2ccc(C(C)(C)O)cn2)cn1 10.51

Output pIC50 of CCn1ccc(-c2cnc(NC(C)=O)cc2Nc2cc(OCCOC)cc(S(C)(=O)=O)n2)n1 10.21

Identify measured pIC50 corresponding to CCn1ccc(-c2cnc(NC(C)=O)cc2Nc2cc(C#N)cc(S(C)(=O)=O)c2)n1 10.00

Identify measured pIC50 corresponding to CC(=O)Nc1cc(Nc2cc(OCCO)cc(S(C)(=O)=O)n2)c(-c2ccccn2)cn1 10.80

Give me measured pIC50, please, for this molecule: CC(=O)Nc1cc(Nc2cc(N3CCC(C)(O)CC3)cc(S(C)(=O)=O)n2)c(-c2ccc3c(n2)OCC(C)(C)O3)cn1 10.72

Provide pIC50 value for the following molecule: CC(=O)Nc1cc(Nc2cc(C3CCOCC3)cc(S(C)(=O)=O)n2)c(-c2ccn(C)n2)cn1 10.72

Please indicate pIC50 recorded for COc1ccc(Nc2cc(NC(C)=O)ncc2-c2ccn(C)n2)nc1S(C)(=O)=O 10.31

# return recorded pIC50 for entry COCc1ccc(-c2cnc(NC(C)=O)cc2Nc2cc(OC)cc(S(C)(=O)=O)n2)nc1 10.70

Need pIC50 for each of these molecules.
1. CC(=O)Nc1cc(Nc2nc(S(C)(=O)=O)ccc2OC(C)C)c(-c2ccn(C)n2)cn1
2. COCCOc1ccc(-c2cnc(NC(C)=O)cc2Nc2cccc(S(C)(=O)=O)c2)nc1 [Example D2]
3. COCc1cc(Nc2cc(NC(C)=O)ncc2-c2ccn(C)n2)nc(S(C)(=O)=O)c1
4. COc1ccc(-c2cnc(NC(C)=O)cc2Nc2cc(OCC3CC3)cc(S(C)(=O)=O)n2)nn1

1: 9.89; 2: 10.42; 3: 10.82; 4: 10.57

Here are 2 molecules. What values of pIC50 were reported for them?
1. COCCOc1cc(Nc2cc(NC(C)=O)ncc2-c2ccc(F)cn2)nc(S(C)(=O)=O)c1
2. CC(=O)Nc1cc(Nc2cc(C)cc(S(C)(=O)=O)n2)c(-c2ccc3c(n2)OCCO3)cn1

[10.57, 10.64]

----------
Tested on: pSTAT5/GM-CSF
Assay summary: pSTAT5/GM-CSF cellular assay (JAK2 selectivity)
Type: cell-based
pIC50: −log10 of the molar value.
Please respond with reported pIC50 for every item in the list.

Consider the following illustrative entries.
Indicate the recorded pIC50 value for this molecule: CC(=O)Nc1cc(Nc2cc(C(F)(F)F)cc(S(C)(=O)=O)c2)c(-c2ccn(C(C)C)n2)cn1 < 5.00

Tell me measured pIC50 for CC(=O)Nc1cc(Nc2cccc(S(C)(=O)=O)c2)c(-c2ccc(C(F)(F)F)cn2)cn1 please. < 5.00

For each of the molecules below, note its pIC50.
1. COCCOc1cc(Nc2cc(NC(C)=O)ncc2-c2ccccn2)nc(S(C)(=O)=O)c1
2. COCCOc1ccc(-c2cnc(NC(C)=O)cc2Nc2cc(OCC3CC3)cc(S(C)(=O)=O)c2)nc1
3. CC(=O)Nc1cc(Nc2cccc(S(N)(=O)=O)n2)c(-c2ccccn2)cn1
4. CC(=O)Nc1cc(Nc2cc(OC3COC3)cc(S(C)(=O)=O)n2)c(-c2ccc(C(C)(C)O)cn2)cn1

1: < 5.00; 2: < 5.00; 3: < 5.00; 4: < 5.00

Please report pIC50 for every entry that follows.
1. CC(=O)Nc1cc(Nc2cc(OCC3COC3)cc(S(C)(=O)=O)n2)c(-c2ccn(C)n2)cn1
2. CC(=O)Nc1cc(Nc2cccc(S(C)(=O)=O)n2)c(-c2cccnn2)cn1

1. < 5.00
2. < 5.00

----------
Record form. Attribute: Selectivity fold (TYK2/JAK2). Fill in for each entry.
Test system: JAK2, TYK2/p-STAT4 (Tyr693) activated by IL-12 in NK-92 cell line
Assay summary: IL-12-JAK2, TYK2/p-STAT4 (Tyr693) inhibition IC50 cellular assay
Format: cell-based
Applied conditions: Cellular assay; pSTAT5/GM-CSF IC50 vs pSTAT4/IL-12 IC50

Example compounds with recorded Selectivity fold (TYK2/JAK2):
Kindly indicate its recorded Selectivity fold (TYK2/JAK2). Item: COCc1ccc(-c2cnc(NC(C)=O)cc2Nc2cc(OC)cc(S(C)(=O)=O)n2)nc1 [Example E7] >22371 fold

Give the reported Selectivity fold (TYK2/JAK2) for this compound. CC(=O)Nc1cc(Nc2cccc(S(C)(=O)=O)c2)c(-c2ccc(C(C)(C)O)cn2)cn1 [Example H1] >3846 fold

Need Selectivity fold (TYK2/JAK2) for each of these compounds.
1. COCc1ccc(-c2cnc(NC(C)=O)cc2Nc2cc(O[C@H]3C[C@H](O)C3)cc(S(C)(=O)=O)n2)nc1 [Example E8]
2. COCCOc1cc(Nc2cc(NC(C)=O)ncc2-c2ccc(C(F)(F)F)cn2)nc(S(C)(=O)=O)c1 [Example F11]

1: >3496 fold; 2: >14184 fold

Can you give me Selectivity fold (TYK2/JAK2) for all of these, one by one?
1. CC(=O)Nc1cc(Nc2cc(C)cc(S(C)(=O)=O)n2)c(-c2ccc(O[C@H]3CCOC3)cn2)cn1 [Example B21]
2. CC(=O)Nc1cc(Nc2cc(OCCO)cc(S(C)(=O)=O)n2)c(-c2ccccn2)cn1 [Example B7]
3. COC(C)COc1cc(Nc2cc(NC(C)=O)ncc2-c2ccc(C(C)(C)O)cn2)nc(S(C)(=O)=O)c1 (stereo not shown) [Example H7]
4. CC(=O)Nc1cc(Nc2cc(S(C)(=O)=O)ccc2C)c(-c2ccc(C(C)(C)O)cn2)cn1 [Example H35]
5. CC(=O)Nc1cc(Nc2cccc(S(C)(=O)=O)n2)c(-c2cc(Cl)c(C(C)(C)O)cn2)cn1 [Example B17]

5620 fold
>1792 fold
>8196 fold
>3154 fold
>4878 fold

For each of the items listed, what is its Selectivity fold (TYK2/JAK2)?
1. COc1cc(Nc2cc(NC(C)=O)ncc2-c2ccc(C(C)(C)O)cn2)nc(S(C)(=O)=O)c1 [Example H11]
2. COCCOc1ccc(-c2cnc(NC(C)=O)cc2Nc2cccc(S(C)(=O)=O)c2)nc1 [Example D2]
3. CC(=O)Nc1cc(Nc2cc(OC(C)C)cc(S(C)(=O)=O)n2)c(-n2cccn2)cn1 [Example A12]
4. CC(=O)Nc1cc(Nc2cc(C)cc(S(C)(=O)=O)n2)c(-c2ccco2)cn1 [Example A9]
5. COc1ccc(-c2cnc(NC(C)=O)cc2Nc2cc(OC(C)C)cc(S(C)(=O)=O)n2)nn1 [Example A26]
6. CC(=O)Nc1cc(Nc2cc(O[C@H]3C[C@H](O)C3)cc(S(C)(=O)=O)n2)c(-c2ccc(C(C)(C)O)cn2)cn1 [Example H10]

1. >10000 fold
2. >641 fold
3. >595 fold
4. >7518 fold
5. >24691 fold
6. >607 fold

Indicate the recorded Selectivity fold (TYK2/JAK2) value for this compound: CC(=O)Nc1cc(Nc2cc(C)cc(S(C)(=O)=O)n2)c(-c2ccc(OC(C)C)nn2)cn1 [Example A29] >22123 fold
